Tested on: Micronectriella nivalis
Labelling: MIC reported below 2 µg/mL becomes yes (1); at or above becomes no (0).

Check out these entries, answers already filled in.
| MOL | LABEL VALUE |
| --- | --- |
| Clc1nc2ncnn2c(Cl)c1-c1ccc(-c2ccccc2)cc1 | no (0) |
| Fc1cccc(-c2c(Cl)nc3ncnn3c2Cl)c1 | no (0) |
| CCOc1ccc(-c2c(Cl)nc3ncnn3c2Cl)cc1 | yes (1) |

Read the next record carefully.
Ask: Just wondering, is MIC of CC(C)(C)c1ccc(-c2c(Cl)nc3ncnn3c2Cl)cc1 below 2 µg/mL?
Reply: yes (1)

* * *

Measured Fungicidal Activity PHI (disease control rating) accompanies every entry in the list below.
System: Pseudocercosporella herpotrichoides
ASSAY TEXT: Activity against wheat eyespot in-vitro (PHI), Example 53(j)
Assay type: cell-based
MEASUREMENT CONDITIONS: 50 ppm, 12 days at 20° C.

| MOL | RESULT |
| --- | --- |
| Clc1nc2ncnn2c(Cl)c1-c1cccc2ccccc12 | 1 (about 50-80% disease control) |
| Clc1nc2ncnn2c(Cl)c1-c1ccccc1OCc1ccccc1 | 1 (about 50-80% disease control) |
| Clc1nc2ncnn2c(Cl)c1-c1ccc2ccccc2c1 | 2 (greater than 80% disease control) |

Consider now this further compound.
Ask: GET /values?readout=Fungicidal Activity PHI (disease control rating)&system=Pseudocercosporella herpotrichoides&item= Clc1nc2ncnn2c(Cl)c1-c1cccs1
Reply: 2 (greater than 80% disease control)

* * *

Tested on: Pseudocercosporella herpotrichoides
ASSAY TEXT: Activity against wheat eyespot in-vitro (PHI), Example 53(j)
Type: cell-based
MEASUREMENT CONDITIONS: 50 ppm, 12 days at 20° C.
METRIC NAME: Fungicidal Activity PHI (disease control rating)

Ask: Looking for the measured Fungicidal Activity PHI (disease control rating) of FC(F)(F)c1cccc(-c2c(Cl)nc3ncnn3c2Cl)c1 , can you help?
Reply: 2 (greater than 80% disease control)

Ask: If you can, please state the reported Fungicidal Activity PHI (disease control rating) value of Fc1ccccc1-c1c(Cl)nc2ncnn2c1Cl .
Reply: 2 (greater than 80% disease control)

Ask: Quick check: Fungicidal Activity PHI (disease control rating) of COc1cccc(-c2c(Cl)nc3ncnn3c2Cl)c1 ?
Reply: 2 (greater than 80% disease control)

Ask: Recorded Fungicidal Activity PHI (disease control rating) for COc1ccc(-c2c(Cl)nc3ncnn3c2Cl)cc1OC , please?
Reply: 2 (greater than 80% disease control)

Ask: GET /values?readout=Fungicidal Activity PHI (disease control rating)&item= Clc1nc2ncnn2c(Cl)c1-c1ccc(Br)cc1
Reply: 2 (greater than 80% disease control)

* * *

In this section we review reported MIC values for a set of compounds.
Tested on: Pseudocercosporella herpotrichoides
ASSAY TEXT: MIC by serial dilution, Example 55, Pseudocercosporella herpotrichoides
Format: cell-based
MEASUREMENT CONDITIONS: Oculimacula yallundae; microtitre plates, 20° C., 6-8 days
State the answer as a number, implicitly in mg/L.

| MOL | RESULT UNIT | RESULT NUMBER |
| --- | --- | --- |
| CC(C)(C)c1ccc(-c2c(Cl)nc3ncnn3c2Cl)cc1 | mg/L | 3.13 |
| Fc1cccc(-c2c(Cl)nc3ncnn3c2Cl)c1 | mg/L | 25 |
| Clc1ccc(-c2c(Cl)nc3ncnn3c2Cl)c(Cl)c1 | mg/L | 6.25 |
| Fc1ccc(-c2c(Cl)nc3ncnn3c2Cl)cc1 | mg/L | 3.13 |
| Cc1ccc(-c2c(Cl)nc3ncnn3c2Cl)cc1C | mg/L | 12.5 |
| Cc1ccccc1-c1c(Cl)nc2ncnn2c1Cl | mg/L | 12.5 |

Ask: Please give the measured MIC for this compound: Clc1nc2ncnn2c(Cl)c1-c1ccc(Br)cc1
Reply: 12.5

Ask: Report MIC for FC(F)(F)Oc1ccc(-c2c(Cl)nc3ncnn3c2Cl)cc1 please.
Reply: 12.5

Source listed as patent US5854252A.
